Data credit: patent US20230181671A1

# Study target: T1, LPAR1 (on CHO cells; species not stated) (UniProt Q92633 1-364)
# T1 construct: whole, on cells; also called CHO-LPAR1 cells
# T1 sequence (Q92633 whole entry): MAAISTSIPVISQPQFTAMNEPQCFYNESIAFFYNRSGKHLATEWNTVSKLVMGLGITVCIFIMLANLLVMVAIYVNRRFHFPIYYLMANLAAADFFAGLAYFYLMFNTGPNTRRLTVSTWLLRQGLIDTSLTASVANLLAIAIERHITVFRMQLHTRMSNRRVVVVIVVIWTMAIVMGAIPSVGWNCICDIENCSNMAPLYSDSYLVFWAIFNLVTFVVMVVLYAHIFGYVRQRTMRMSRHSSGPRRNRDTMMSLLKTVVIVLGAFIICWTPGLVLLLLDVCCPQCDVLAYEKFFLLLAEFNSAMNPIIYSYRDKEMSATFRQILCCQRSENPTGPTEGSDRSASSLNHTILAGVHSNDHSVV
# Experiment description: KinExA (method 1.14), monomeric Fab as constant binding partner, CHO-LPAR1 cells titrated
Overview of reported Kd across a group of binders:
Reply with just the number (in nM).

Consider the worked cases shown below.
Binder | Result number
Antibody 13, monomeric Fab (Fab, V domains shown) VH: QVQLVQSGSELKKPGASVKVSCKASGYTFTSSGISWVRQAPGQGLEWMGEILPRSGYTNYNQGFTGRFVFSADKSVSTAYLQISSLKAEDTAVYYCARDKGPSRYTMDYWGQGTTVTVSS VL: SIQMTQSPSSLSASVGDRVTITCQASQSVRYNVAWYQQKPGKAPKLLIYYASNRYDGVPSRFSGSGSGTDFTFTISSLQPEDIATYFCQHHYSSPLTFGGGTKLEIK | 0.993
Antibody 15, monomeric Fab (Fab, V domains shown) VH: QVQLVQSGSELKKPGASVKVSCKASGYTFTSSGISWVRQAPGQGLEWMGEILPRSGYTNYNQGFTGRFVFSADKSVSTAYLQISSLKAEDTAVYYCARDFKGGRYAMDYWGQGTTVTVSS VL: SIQMTQSPSSLSASVGDRVTITCQASQSVRYNVAWYQQKPGKAPKLLIYYASNRYEGVPSRFSGSGSGTDFTFTISSLQPEDIATYFCQHHYSSPLTFGGGTKLEIK | 0.824
Antibody 12, monomeric Fab (Fab, V domains shown) VH: QVQLVQSGSELKKPGASVKVSCKASGYTFTSSGISWVRQAPGQGLEWMGEILPRSGYTNYNQGFTGRFVFSADKSVSTAYLQISSLKAEDTAVYYCARDFKGGRYAMDYWGQGTTVTVSS VL: SIQMTQSPSSLSASVGDRVTITCQASQSVRYNVAWYQQKPGKAPKLLIYYASNRYDGVPSRFSGSGSGTDFTFTISSLQPEDIATYFCQHHYSSPLTFGGGTKLEIK | 1.28
Antibody 16, monomeric Fab (Fab, V domains shown, Same VH and VL as Antibody 15; The two antibodies differ only in the silencing mutations of the heavy chain constant region) VH: QVQLVQSGSELKKPGASVKVSCKASGYTFTSSGISWVRQAPGQGLEWMGEILPRSGYTNYNQGFTGRFVFSADKSVSTAYLQISSLKAEDTAVYYCARDFKGGRYAMDYWGQGTTVTVSS VL: SIQMTQSPSSLSASVGDRVTITCQASQSVRYNVAWYQQKPGKAPKLLIYYASNRYEGVPSRFSGSGSGTDFTFTISSLQPEDIATYFCQHHYSSPLTFGGGTKLEIK | 0.824
Antibody 18, monomeric Fab (Fab, V domains shown) VH: QVQLVQSGSELKKPGASVKVSCKASGYTFTSSGISWVRQAPGQGLEWMGEIQPRSGYTNYNQGFTGRFVFSADKSVSTAYLQISSLKAEDTAVYYCARDKGPARYTMDYWGQGTTVTVSS VL: SIQMTQSPSSLSASVGDRVTITCQASQSIRYNVAWYQQKPGKAPKLLIYYASNRYEGVPSRFSGSGSGTDFTFTISSLQPEDIATYYCQHHYSSPLTFGGGTKLEIK | 1.39

// below: Kd requested for another binder
Request: Provide only the value of recorded Kd for Antibody 17, monomeric Fab (Fab, V domains shown) VH: QVQLVQSGSELKKPGASVKVSCKASGYTFTSSGISWVRQAPGQGLEWMGEIQPRSGYTNYNQGFTGRFVFSADKSVSTAYLQISSLKAEDTAVYYCARDKGPARYTMDYWGQGTTVTVSS VL: SIQMTQSPSSLSASVGDRVTITCQASQSVRYNVAWYQQKPGKAPKLLIYYASNRYEGVPSRFSGSGSGTDFTFTISSLQPEDIATYFCQHHYSSPLTFGGGTKLEIK
Response: 1
